Assay: Serum biochemical markers after treatment of MNU-induced rats
Type: in vivo, Wistar rats
Details: serum, dose 50 mg/kg
Checkbox rule: AST (U/L) lower than 60 U/L = y; AST (U/L) not lower than 60 U/L = n.

Is it true that AST (U/L) reported for CC(=O)c1cc(C(=O)O[C@@H]2/C=C/C(=O)O[C@@H](O)CCC/C=C/[C@@H]3C[C@H](O)C[C@H]32)ccc1OCCN1CC(C(=O)O)=CCC1=O is less than 60 U/L?
n

Is it true that AST (U/L) reported for CNCCOc1ccc(C(=O)O[C@@H]2/C=C/C(=O)O[C@@H](O)CCC/C=C/[C@@H]3C[C@H](O)C[C@H]32)cc1C(C)=O is less than 60 U/L?
y

Is it true that AST (U/L) reported for CN(N=O)C(N)=O [MNU, Methyl nitrosourea, reference compound] is less than 60 U/L?
n

---

Assay: Liver oxidative stress markers after treatment of MNU-induced rats
Format: in vivo, Wistar rats
Details: catalase activity, liver, dose 5 mg/kg
attribute.measured: CAT
// print number alone

Need CAT of CC(=O)c1cc(C(=O)O[C@@H]2/C=C/C(=O)O[C@@H](O)CCC/C=C/[C@@H]3C[C@H](O)C[C@H]32)ccc1OCCN1CCCC(O)C1=O (stereo partly shown) , thanks.
14.55

Need CAT of CC(=O)c1cc(C(=O)O[C@@H]2/C=C/C(=O)O[C@@H](O)CCC/C=C/[C@@H]3C[C@H](O)C[C@H]32)ccc1OCCS(=O)(=O)O , thanks.
16.34

Need CAT of CNCCOc1ccc(C(=O)O[C@@H]2/C=C/C(=O)O[C@@H](O)CCC/C=C/[C@@H]3C[C@H](O)C[C@H]32)cc1C(C)=O , thanks.
16.21

Need CAT of CC(=O)c1cc(C(=O)OC2/C=C/C(=O)O[C@@H](O)CCC/C=C/[C@@H]3C[C@H](O)C[C@@H]23)ccc1OCCN1CCC=C(C(=O)O)C1 (stereo partly shown) , thanks.
17.46

Need CAT of CC(=O)c1cc(C(=O)O[C@@H]2/C=C/C(=O)O[C@@H](O)CCC/C=C/[C@@H]3C[C@H](O)C[C@H]32)ccc1OCCN1CC(C(=O)O)=CCC1=O , thanks.
10.83

Need CAT of CC/C(=C(\c1ccc(O)cc1)c1ccc(OCCN(C)C)cc1)c1ccccc1 [Compound 4-OHT., 4-hydroxytamoxifen, reference compound] , thanks.
13.56

Need CAT of CC(=O)c1cc(C(=O)O[C@@H]2/C=C/C(=O)O[C@@H](O)CCC/C=C/[C@@H]3C[C@H](O)C[C@H]32)ccc1OCCN(C)C , thanks.
15.54

---

Assay: Serum biochemical markers after treatment of MNU-induced rats
Type: in vivo, Wistar rats
Parameters: unit not given here
Settings: total bilirubin content, dose 5 mg/kg
Checkbox rule: TBC lower than 20 = 1; TBC not lower than 20 = 0.

Is it true that TBC reported for CC(=O)c1cc(C(=O)O[C@@H]2/C=C/C(=O)O[C@@H](O)CCC/C=C/[C@@H]3C[C@H](O)C[C@H]32)ccc1OCCN1CCCC(O)C1=O (some centres unmarked) is less than 20?
1

Is it true that TBC reported for CC(=O)c1cc(C(=O)OC2/C=C/C(=O)O[C@@H](O)CCC/C=C/[C@@H]3C[C@H](O)C[C@@H]23)ccc1OCCN1CCC=C(C(=O)O)C1 (some centres unmarked) is less than 20?
1

Is it true that TBC reported for O=C(c1ccc(OCCN2CCCCC2)cc1)c1c(-c2ccc(O)cc2)sc2cc(O)ccc12 [Ral., Raloxifene, reference compound] is less than 20?
1

Is it true that TBC reported for CC/C(=C(\c1ccc(O)cc1)c1ccc(OCCN(C)C)cc1)c1ccccc1 [Compound 4-OHT., 4-hydroxytamoxifen, reference compound] is less than 20?
0

Is it true that TBC reported for CC(=O)c1cc(C(=O)O[C@@H]2/C=C/C(=O)O[C@@H](O)CCC/C=C/[C@@H]3C[C@H](O)C[C@H]32)ccc1OCCS(=O)(=O)O is less than 20?
1

Is it true that TBC reported for CNCCOc1ccc(C(=O)O[C@@H]2/C=C/C(=O)O[C@@H](O)CCC/C=C/[C@@H]3C[C@H](O)C[C@H]32)cc1C(C)=O is less than 20?
1

Is it true that TBC reported for CC(=O)c1cc(C(=O)O[C@@H]2/C=C/C(=O)O[C@@H](O)CCC/C=C/[C@@H]3C[C@H](O)C[C@H]32)ccc1OCCN1CC(C(=O)O)=CCC1=O is less than 20?
0

Is it true that TBC reported for CC(=O)c1cc(C(=O)O[C@@H]2/C=C/C(=O)O[C@@H](O)CCC/C=C/[C@@H]3C[C@H](O)C[C@H]32)ccc1OCCN(C)C is less than 20?
1

---

Experiment: Liver oxidative stress markers after treatment of MNU-induced rats
Format: in vivo, Wistar rats
Conditions: reduced glutathione, liver, dose 50 mg/kg
Respond with fulfilled for GSH values of 9 mg/g and above, not fulfilled for values below.

Quick check, GSH >= 9 mg/g? CC(=O)c1cc(C(=O)O[C@@H]2/C=C/C(=O)O[C@@H](O)CCC/C=C/[C@@H]3C[C@H](O)C[C@H]32)ccc1OCCS(=O)(=O)O
fulfilled

Quick check, GSH >= 9 mg/g? CC(=O)c1cc(C(=O)OC2/C=C/C(=O)O[C@@H](O)CCC/C=C/[C@@H]3C[C@H](O)C[C@@H]23)ccc1OCCN1CCC=C(C(=O)O)C1 (stereo partly shown)
fulfilled

Quick check, GSH >= 9 mg/g? CC(=O)c1cc(C(=O)O[C@@H]2/C=C/C(=O)O[C@@H](O)CCC/C=C/[C@@H]3C[C@H](O)C[C@H]32)ccc1OCCN(C)C
fulfilled

Quick check, GSH >= 9 mg/g? CC/C(=C(\c1ccc(O)cc1)c1ccc(OCCN(C)C)cc1)c1ccccc1 [Compound 4-OHT., 4-hydroxytamoxifen, reference compound]
not fulfilled

Quick check, GSH >= 9 mg/g? CNCCOc1ccc(C(=O)O[C@@H]2/C=C/C(=O)O[C@@H](O)CCC/C=C/[C@@H]3C[C@H](O)C[C@H]32)cc1C(C)=O
fulfilled

---

Test system: MDA-MB-231 cell lines
Test: MTT antiproliferative assay
Format: cell-based, human
Conditions: Homo sapiens, MDA-MB-231, 48 h, read-out: MDA-MB-231 (IC50 nM)
attribute.measured: IC50 (nM)
Give just the numeric value; nM need not be written.

Need IC50 of CC(=O)c1cc(C(=O)OC2/C=C/C(=O)O[C@@H](O)CCC/C=C/[C@@H]3C[C@H](O)C[C@@H]23)ccc1OCCN1CCC=C(C(=O)O)C1 (stereo partly shown) [Compound 3DPQ-3] , thanks.
86.6

---

Tested on: MNU-induced breast cancer
Test: In vivo anticancer screening, MNU-induced mammary tumorigenesis
Set-up: species or system female Wistar rats
Settings: dose 50 mg/kg (compounds per os after MNU; MNU alone i.p.)
Kindly state Tumor Burden (week) for each of the entries shown.

Item CC(=O)c1cc(C(=O)O[C@@H]2/C=C/C(=O)O[C@@H](O)CCC/C=C/[C@@H]3C[C@H](O)C[C@H]32)ccc1OCCS(=O)(=O)O with MNU-induced breast cancer - Tumor Burden (week)?
1.33 ± 0.15 *^,†,§,┴ week

Item CNCCOc1ccc(C(=O)O[C@@H]2/C=C/C(=O)O[C@@H](O)CCC/C=C/[C@@H]3C[C@H](O)C[C@H]32)cc1C(C)=O with MNU-induced breast cancer - Tumor Burden (week)?
2.04 ± 0.35 *^,†,§,┴ week

Item CC(=O)c1cc(C(=O)O[C@@H]2/C=C/C(=O)O[C@@H](O)CCC/C=C/[C@@H]3C[C@H](O)C[C@H]32)ccc1OCCN(C)C with MNU-induced breast cancer - Tumor Burden (week)?
1.98 ± 0.45 *^,†,§,┴ week

---

Test: MTT antiproliferative assay (neutral control)
Conditions: human, MRC-5 lung fibroblast cells, MRC-5 (IC50 nM), growth inhibition
attribute.measured: IC50 at 48 h

Need IC50 at 48 h of CC/C(=C(\c1ccc(O)cc1)c1ccc(OCCN(C)C)cc1)c1ccccc1 [Compound 4-OHT., 4-hydroxytamoxifen, reference compound] , thanks.
> 10 nM

---

Assay: Liver oxidative stress markers after treatment of MNU-induced rats
Type: in vivo, Wistar rats
Conditions: reduced glutathione, liver, dose 5 mg/kg
Kindly state GSH for each of the entries shown.
Give just the numeric value; mg/g need not be written.

Need GSH of CC(=O)c1cc(C(=O)O[C@@H]2/C=C/C(=O)O[C@@H](O)CCC/C=C/[C@@H]3C[C@H](O)C[C@H]32)ccc1OCCN1CCCC(O)C1=O (stereo partly drawn) , thanks.
8.96

Need GSH of CC(=O)c1cc(C(=O)O[C@@H]2/C=C/C(=O)O[C@@H](O)CCC/C=C/[C@@H]3C[C@H](O)C[C@H]32)ccc1OCCN1CC(C(=O)O)=CCC1=O , thanks.
8.66

Need GSH of CC(=O)c1cc(C(=O)OC2/C=C/C(=O)O[C@@H](O)CCC/C=C/[C@@H]3C[C@H](O)C[C@@H]23)ccc1OCCN1CCC=C(C(=O)O)C1 (stereo partly drawn) , thanks.
9.15
